Test: Frequency sweep test (FST), rheometer
Assay type: physicochemical
Details: hydrogels 15-19 at 1% w/v, FST fixed strain 0.1%
Reported Endpoint: G′ (modulus storage) (kPa)

Compound	G′ (modulus storage), kPa
CN(C)CCCNC(=O)[C@H](Cc1ccccc1)NC(=O)c1ccccc1NC(=O)c1ccc2ccccc2c1 [Compound 18]	5.12
CN(C)CCCNC(=O)[C@H](Cc1ccccc1)NC(=O)c1ccc(Cl)cc1NC(=O)c1ccc2ccccc2c1 [Compound 16]	0.53
CN(C)CCCNC(=O)[C@H](Cc1ccccc1)NC(=O)c1ccccc1NC(=O)c1ccc2ccccc2c1.Cl [Compound 19]	1.61

P. CN(C)CCCNC(=O)[C@H](Cc1ccccc1)NC(=O)c1ccc(F)cc1NC(=O)c1ccc2ccccc2c1 [Compound 15]
Q. CN(C)CCCNC(=O)[C@H](Cc1ccccc1)NC(=O)c1ccc(Br)cc1NC(=O)c1ccc2ccccc2c1 [Compound 17]
# return whichever of P and Q has the smaller G′ (modulus storage) Write the label of whichever entry you select.
Q
(Q: 0.08 kPa, P: 1.20 kPa)
